# system.tested: HLA-B*4501 (Homo sapiens, UniProt P01889, A329T/A65T/A93T/A95T/C349S/D138N/D201E/D98Y/E176V/E187L/E204Q/E69K/H137Y/K202T/L119W/N87E/Q56L/Q94N/R155S/R180D/S121R/S35A/S48T/V127L/V306I/V36M/W191S/Y140L/Y33H/Y91S)
# assay.summary: biochemical
# Assay type: binding
No end group written: not given here.
log10(IC50) for assorted sequences
outcome.measure: log10(IC50) (log10 of the value in µM)

{"seq.text": "AEPAAEGVGAV", "log10(IC50)": 0.18}
{"seq.text": "AEPAAEGVGA", "log10(IC50)": -0.98}
{"seq.text": "AENFWVTVY", "log10(IC50)": -0.54}
{"seq.text": "AEKLWVTVY", "log10(IC50)": -0.66}
{"seq.text": "AENLKVTVY", "log10(IC50)": 0.98}
{"seq.text": "AENTWVTVY", "log10(IC50)": -0.35}
{"seq.text": "AENLWVTVE", "log10(IC50)": -0.61}
{"seq.text": "AENLWVTVT", "log10(IC50)": -2.00}
{"seq.text": "AENLWVTVI", "log10(IC50)": -1.27}
{"seq.text": "YEDLRVLSF", "log10(IC50)": 1.27}
{"seq.text": "AENLWVTTY", "log10(IC50)": -1.32}
{"seq.text": "AENLVVTVY", "log10(IC50)": -0.14}
{"seq.text": "AENLWVTVQ", "log10(IC50)": -1.00}
{"seq.text": "AENLWFTVY", "log10(IC50)": -1.05}
{"seq.text": "AENLWVTVS", "log10(IC50)": -1.47}
{"seq.text": "AEFLWVTVY", "log10(IC50)": -0.33}
{"seq.text": "AENLNVTVY", "log10(IC50)": 0.39}
{"seq.text": "IEDPPYNSL", "log10(IC50)": 1.27}
{"seq.text": "AENLFVTVY", "log10(IC50)": -0.63}
